Target: A disintegrin and metalloproteinase with thrombospondin motifs 5 (Homo sapiens)
Sequence (Q9UNA0 whole entry): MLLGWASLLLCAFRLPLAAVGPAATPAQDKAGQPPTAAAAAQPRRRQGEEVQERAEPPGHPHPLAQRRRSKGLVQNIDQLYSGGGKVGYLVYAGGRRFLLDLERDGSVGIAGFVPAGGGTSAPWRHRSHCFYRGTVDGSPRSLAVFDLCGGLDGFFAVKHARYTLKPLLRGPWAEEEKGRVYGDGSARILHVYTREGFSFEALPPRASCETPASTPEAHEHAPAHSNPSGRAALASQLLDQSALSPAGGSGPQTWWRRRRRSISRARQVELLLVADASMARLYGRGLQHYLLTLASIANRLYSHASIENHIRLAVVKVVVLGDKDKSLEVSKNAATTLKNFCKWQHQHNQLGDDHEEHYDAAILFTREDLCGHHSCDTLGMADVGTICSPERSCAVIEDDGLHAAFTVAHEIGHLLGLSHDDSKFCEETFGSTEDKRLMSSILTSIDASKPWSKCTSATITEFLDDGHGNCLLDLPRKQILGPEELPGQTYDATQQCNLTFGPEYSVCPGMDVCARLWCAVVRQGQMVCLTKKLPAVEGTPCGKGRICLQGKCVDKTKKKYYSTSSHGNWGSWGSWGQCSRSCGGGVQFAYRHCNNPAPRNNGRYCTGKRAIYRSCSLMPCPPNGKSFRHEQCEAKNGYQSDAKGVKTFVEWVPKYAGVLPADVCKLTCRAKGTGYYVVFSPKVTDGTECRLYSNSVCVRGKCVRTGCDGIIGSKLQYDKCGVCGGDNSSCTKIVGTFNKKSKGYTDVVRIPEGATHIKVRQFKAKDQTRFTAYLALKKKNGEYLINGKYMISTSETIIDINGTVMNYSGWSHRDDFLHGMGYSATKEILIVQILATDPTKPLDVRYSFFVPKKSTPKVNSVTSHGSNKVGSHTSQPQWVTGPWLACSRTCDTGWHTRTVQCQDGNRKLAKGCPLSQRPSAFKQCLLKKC
Test: Inhibition of aggrecanase-2
readout.kind: IC50

{"structure": "CC(C)[C@@H](NS(=O)(=O)c1ccc(-c2ccc(OCc3cccc(C(F)(F)F)c3)cc2)cc1)C(=O)O", "value.measured": "2.38 µM"}
{"structure": "Cc1c(COc2ccc(-c3ccc(S(=O)(=O)N[C@@H](C(=O)O)C(C)C)cc3)cc2)oc2ccccc12", "value.measured": "3.7 µM"}

###

Target: A disintegrin and metalloproteinase with thrombospondin motifs 4 (Homo sapiens)
Sequence (O75173 whole entry): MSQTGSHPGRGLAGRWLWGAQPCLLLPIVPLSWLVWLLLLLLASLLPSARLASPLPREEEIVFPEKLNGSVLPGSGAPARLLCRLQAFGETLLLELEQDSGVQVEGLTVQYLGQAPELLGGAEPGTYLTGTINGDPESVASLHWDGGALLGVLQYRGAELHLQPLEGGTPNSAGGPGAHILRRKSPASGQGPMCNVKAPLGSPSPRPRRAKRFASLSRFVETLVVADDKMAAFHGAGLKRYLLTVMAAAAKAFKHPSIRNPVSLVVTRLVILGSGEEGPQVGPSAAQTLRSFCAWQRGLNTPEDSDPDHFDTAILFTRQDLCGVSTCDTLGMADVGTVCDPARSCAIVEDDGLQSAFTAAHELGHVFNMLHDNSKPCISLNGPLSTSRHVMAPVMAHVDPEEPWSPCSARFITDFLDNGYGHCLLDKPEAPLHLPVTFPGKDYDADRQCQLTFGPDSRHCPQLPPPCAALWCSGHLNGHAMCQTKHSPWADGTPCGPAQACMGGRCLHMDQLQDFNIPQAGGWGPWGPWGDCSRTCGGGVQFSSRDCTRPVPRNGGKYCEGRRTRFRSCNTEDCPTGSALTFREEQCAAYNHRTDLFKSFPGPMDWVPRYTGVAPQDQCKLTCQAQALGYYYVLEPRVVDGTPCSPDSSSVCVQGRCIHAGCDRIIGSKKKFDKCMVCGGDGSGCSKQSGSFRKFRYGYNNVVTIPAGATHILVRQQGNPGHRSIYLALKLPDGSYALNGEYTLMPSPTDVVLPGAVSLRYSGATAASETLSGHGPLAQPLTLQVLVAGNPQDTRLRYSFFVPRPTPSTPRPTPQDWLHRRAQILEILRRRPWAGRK
Binarize IC50 at 4 µM; below is met, at or above is not met.

{"molecule": "CC(C)[C@@H](NS(=O)(=O)c1ccc(-c2ccc(OCc3ccncc3)cc2)cc1)C(=O)O", "class": "not met"}
{"molecule": "CC(C)[C@@H](NS(=O)(=O)c1ccc(-c2ccc(OC(=O)Nc3ccccc3)cc2)cc1)C(=O)O", "class": "not met"}
{"molecule": "CC(C)[C@@H](NS(=O)(=O)c1ccc(-c2ccc(OCc3ccnc4ccccc34)cc2)cc1)C(=O)O", "class": "met"}
{"molecule": "CC(C)[C@@H](NS(=O)(=O)c1ccc(-c2ccc(OCc3ccc(C(F)(F)F)cc3)cc2)cc1)C(=O)O", "class": "met"}
{"molecule": "CC(C)[C@@H](NS(=O)(=O)c1ccc(-c2cccc(CN)c2)cc1)C(=O)O", "class": "not met"}
{"molecule": "CC(C)[C@@H](NS(=O)(=O)c1ccc(-c2ccc(CNC(=O)c3ccccc3)cc2)cc1)C(=O)O", "class": "not met"}
{"molecule": "CC(C)[C@@H](NS(=O)(=O)c1ccc(-c2ccc(CO)cc2)cc1)C(=O)O", "class": "not met"}
{"molecule": "CC(=O)Nc1ccc(-c2ccc(S(=O)(=O)N[C@@H](C(=O)O)C(C)C)cc2)cc1", "class": "not met"}
{"molecule": "CC(C)[C@@H](NS(=O)(=O)c1ccc(-c2cccc(C#N)c2)cc1)C(=O)O", "class": "not met"}
{"molecule": "CC(C)[C@@H](NS(=O)(=O)c1ccc(-c2ccc(OCc3cccc(F)c3)cc2)cc1)C(=O)O", "class": "met"}
{"molecule": "CC(=O)Nc1cccc(-c2ccc(S(=O)(=O)N[C@@H](C(=O)O)C(C)C)cc2)c1", "class": "not met"}
{"molecule": "CC(C)[C@@H](NS(=O)(=O)c1ccc(-c2ccc(OS(=O)(=O)c3ccccc3)cc2)cc1)C(=O)O", "class": "not met"}
{"molecule": "CC(C)[C@@H](NS(=O)(=O)c1ccc(-c2ccc(OCc3cccc(O)c3)cc2)cc1)C(=O)O", "class": "met"}
{"molecule": "CC(=O)NCc1cccc(-c2ccc(S(=O)(=O)N[C@@H](C(=O)O)C(C)C)cc2)c1", "class": "not met"}
{"molecule": "CC(C)[C@@H](NS(=O)(=O)c1ccc(-c2ccc(OCc3cccc(C#N)c3)cc2)cc1)C(=O)O", "class": "met"}
{"molecule": "CC(Oc1ccc(-c2ccc(S(=O)(=O)N[C@@H](C(=O)O)C(C)C)cc2)cc1)c1cccc(C(F)(F)F)c1 (stereo partly drawn)", "class": "met"}
{"molecule": "CC(C)[C@@H](NS(=O)(=O)c1ccc(-c2ccc(OCC3CCCCC3)cc2)cc1)C(=O)O", "class": "not met"}

Hello, the source for this data is ChEMBL document CHEMBL1909576, in case you need it.
